- test: soluble on expression in E. coli; label from the status in PepcDB or PDB records

| biosequence | soluble on expression in E. coli |
| --- | --- |
| GSLPEVLQAPVGSSILVQCHYRLQDVKAQKVWCRFLPEGCQPLVSSAVDRRAPAGRRTFLTDLGGGLLQVEMVTLQEEDAGEYGCMVDGARGPQILHRVSLNILPP | soluble |
| MIYDVFLNFSGEDVRGTFLNHFFKELERKSIIAFKDNESERSQNLSPELTHAIRESRITVVVFSKNYSSSTWCLNELLQVYECYQSMDLPVIPIFYGLDPSHVRKQTGEFGKNFEKTCRNETEACVYQWRRALCDVSNFLGYHSPNWANEATMIEQVANDVLFKLNLTPSSDFSEFVGIEDHIAAMNSVDKR | soluble |
| GIHMGKIKRRAITEHEKRALRHYFFQLQNRSGQQDLIEWFREKFGKDISQPSVSQILSSKYSYLDNTVEKPWDVKRNRPPKYPLLEAALFEWQVQQGDDATLSGETIKRAAAILWHKIPEYQDQPVPNFSNGWLEGFRKRHILH | soluble |
| MAHHHHHHMDMQEQISDKGADDYDDTLVELKESELLKEDEKKKTKKKLYELNELHHLVNALPYIDSYDNELEQNAKRLVEEEMNLMHKNNEIKNYLETFPLPKITYLSNDNSIIQNELKRCEENRKMQKLNFDHYNIENDVLNNKNIEEWEKTLKKYEIILENSHNALINMELMNKYKEVMWSEHMKVFNHLDINLQNNIKTLKDDIDNINKKRKLHQLSYVNELSTLQNEQKEYKKKNNMVLNEIKKLMTENMLMKYKTNMI | not soluble |
| MSYKGSSIPVCSRISSLYFFSVYLQDLADMEDRTSTSRCSSTTRIKPTKIAGFGTVPLLSSAGTNQSVLSTKSAKSCLSNTIAASMTEPQVSMTQVDRMYEDNLARKKRSMVAVSEFNKIYGQEYHPPSSSESTRSFYENIDAVYPSSKASESSSSSASTGSSDNRKDIEKWEKLDSEAESDIELFIKVSDCFD | not soluble |
| EQLAGIDNLRDLDPTGALATKLEAIAPTVSTYDSYAGRLISEYGLLLPVEPSSRLISQTELFQIAHSIVSAHTGALNTSNSPNTVTSTLISLVSEMDNHMVSPTDIEEESAAFLAMIEDVEATSKRAPSKEVYKWRDTQVLRNELLPLVQQLKTHLADNHLMTFGEQMSLAARLAAENPQVGASQRNRYQIIMLDEYQDTGHAQRVLLKSLFAGTAVTAVGDPMQSIYGWRGATAANLERFLTDFGSNGSPATKKELTVSFRNPPEVLDLANRVSRELLGVPEDPRRPVQPLEPGPAALNGIVRLGFFPSMDEERSYVADHLAQAYEQHDGDHPFTAAVLVRKRKHSAAIALELQQRGVPVE | not soluble |
| MTWLTKDGRFAVYEDPFVTKLMNTIGSMTFDGLGFTLLELYRDLVISADNYFMNYVNYGETPHDVGEESIEDPIYGASYPYWWTDLGPTLVLMLYRDYVFTSNREILEKNYNKIKEIIDWLIRKDMDNDCIPDSKGGYDNSYDGTHMYGASSYIASMFLSALTAFIKMSEILDVKIDDKYYRFLECGKKTFNSLWNGKYFILWKKNDEENTSCLNSQLLGQFWCDILGLPPITDHDKINTALRSIYELNFKASKYCLTNAVREDGSVDSSTAQLRSCWPRVSFAVAAHMILRGMVKEGIEVAKREWETIKELNPFDQSSRIDAIDGKYVGLMSYIGSTSVWLLKLALDKIRLEHHHHHH | not soluble |
| RLHRLPRDCQELFQVGERQSGLFEIQPQGSPPFLVNCKMTSDGGWTVIQRRHDGSVDFNRPWEAYKAGFGDPHGEFWLGLEKVHSITGDRNSRLAVQLRDWDGNAELLQFSVHLGGEDTAYSLQLTAPVAGQLGATTVPPSGLSVPFSTWDQDHDLRRDKNCAKSLSGGWWFGTCSHSNLNGQYFRSIPQQRQKLKKGIFWKTWRGRYYPLQATTMLIQPMAAEAAS | soluble |
| MIVHELTDIGHLFTEQLQEGYYVIRETYQNVLVEPEDGDTVRQVDAGTEEVVTIVFDPGDEYSLICLDTYTFADGIPSLAELKETIAAEYDVFVNDRWAAPSL | not soluble |
| MITSPFERELKLLNEGELGIVQQLVESSNIGFIVDLELDGDYGWAVYKPELGEQPLWDFPPGLYKRERAAFVISEFLGWNIVPPTVIMHDAPAGVGSVQWFIENNGEHYFPLFDTRADLHPQFVRMAVFDLLCNNTDRKAGHVLLDGDHIWGIDHGLCFSVEPKLRTVIWDFAGCTIPDDLVTDVEQLLEDVPEELHQLLHPAEIDALQRRASRISRLPFLPQAKSHRQFPWPLVLEHHHHHH | soluble |
| MGSDKIHHHHHHMCMTSPDQLTASESADTASAHKRVLVAAPRGYCAGVDRAVETVEKALEKYGAPVYVRKEIVHNRYVVDTLAERGAIFVDETTEAPEGAHLVFSAHGVSPAVHKEAEALSLKTLDATCPLVTKVHNEVKRFARDGYHILLVGHEGHEEVEGTAGEAPDVTHLVDGVESVDKLPEFLHDEKLIWLSQTTLSVDETMTIVKKLHERFAHLQDPPSDDICYATQNRQVAVKAIAAESDVVIVVGSQNSSNSKRLVEVALQAGAGASYLVDYAHQIDESWLDGATTVGVSSGASVPEILVRGVLEFLDARGFHDVKEITTAAEKITFALPRDLRPART | not soluble |
| MEKKKVAEWLAQGSIAVPKLLLGHYKQLGLGEGELVLLLHMQSFFEEGVLFPTPAELAERMTVSAAECMEMVRRLLQKGMIAIEEHTDEQGIRNEKYTLEPLWEKLVHHLYTQAAQQGELGRQEEEES | soluble |
| MGSDKIHHHHHHMSIQVKALSKRIDNREILRGITFTWQPGRIVGLVGRNGVGKTTLFRTMADHYLADEGELVIEGQSTLQQPYCRQKLFYIDTQRHFFGGRRLRQIITTYALAYDDFDQSQLTALLAAEHLSTKSYYQRLSKGQQMLFQILLALASHVPYIILDEPFDGLDIIVRERIVAYMVEEVAEHGVSFLISSHNLDELDGLCDQVLFLQHHELVADYDLESLRATARKFQLVFADKHIPAVVKEHGQLIKVYGRVLEVYFADYTPTIETALQQTQPLMMAVQPLTITDVFRVKLGDRQAVWGGV | not soluble |
